Biological target: T1, recombinant Motavizumab human IgE (rMota-hIgE) (human, UniProt P01854 1-428)
T1 construct: also called Recombinant IgE (argenx)
T1 sequence (P01854 other isoform, or with tags, fused parts or gaps limits assumed, form in doubt): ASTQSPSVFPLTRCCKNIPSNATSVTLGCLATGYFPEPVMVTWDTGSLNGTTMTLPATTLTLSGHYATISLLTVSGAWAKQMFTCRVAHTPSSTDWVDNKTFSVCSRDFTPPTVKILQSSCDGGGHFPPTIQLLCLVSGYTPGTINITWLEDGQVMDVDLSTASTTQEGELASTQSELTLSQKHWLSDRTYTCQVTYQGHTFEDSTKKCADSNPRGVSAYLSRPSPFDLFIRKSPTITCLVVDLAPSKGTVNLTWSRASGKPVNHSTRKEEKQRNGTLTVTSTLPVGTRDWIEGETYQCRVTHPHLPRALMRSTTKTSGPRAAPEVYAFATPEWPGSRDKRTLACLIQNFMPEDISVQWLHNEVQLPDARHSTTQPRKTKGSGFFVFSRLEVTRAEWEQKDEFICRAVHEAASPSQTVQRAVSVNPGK
Assay: hIgE binding ELISA
Provide the reported Ratio EC50 pH 5.5/7.4 of each item.
// return a plain number; no unit text

stdin: Given the entry CL-2C mAb 37 (antibody, V domains shown, also called VKWT + VH33H100CH) VH: QVQLVQSGAEVMKPGSSVKVSCKASGYTFSWYHLEWVRQAPGHGLEWMGEIDPGTFTTNYNEKFKARVTFTADTSTSTAYMELSSLRSEDTAVYYCARFSHFSGSNHDYFDYWGQGTLVTVSS VL: EIVMTQSPATLSVSPGERATLSCRASQSIGTNIHWYQQKPGQAPRLLIYYASESISGIPARFSGSGSGTEFTLTISSLQSEDFAVYYCQQSWSWPTTFGGGTKVEIK , report its measured Ratio EC50 pH 5.5/7.4.
stdout: 2.5

stdin: Dear colleague, I am looking for the recorded Ratio EC50 pH 5.5/7.4 of the following binder: OmaVH15G55H - VL3 (antibody, V domains shown) VH: EVQLVESGGGLVQPGGSLRLSCAVSGYSITSGHRWEWIRQAPGKGLEWVASIHYDHSTNYNPSVKGRITISRDDSKNTFYLQMNSLRAEDTAVYYCARATHYFGHWHFAVWGQGTLVTVSS VL: DIQLTQSPSSLSASVGDRVTITCRASQSVDYDGDSYMNWYQQKPGKAPKLLIEWGSYLRSGVPSRFSGSGSGTDFTLTISSLQPEDFATYYCQQNAEDPYTFGQGTKVEIK
stdout: 0.9
